Test system: MS2 coat protein
Protocol Description: apparent Kd, MS2 coat protein; higher = weaker binding; RNA-MaP array; tryptophan 2.4 mM where present
Applied Conditions: designed as: OFF switch for tryptophan; no ligand
# label = TRUE if apparent Kd >= 20 nM else FALSE

For orientation, consider the following solved cases.
UGACAGAUAACCGCUGGUGCUCUCGAGUUGCGAGGACCGGUACGGCCGCCACUCGACAACAUGAGGAUCACCCAUGUUGCGGGUC | TRUE
GCCGCUGCCGCGAUAUGUAUGGGUGUGUAACGAGGACCGGUACGGCCGCCACUCGCGAUCGCACAUGAGGAUCACCCAUGUGUCC | TRUE
AACAACUAGUCGGCCGCCACUCAUAAUACAUGAGGAUCACCCAUGUAUACUUGGUUUUUAUAUUUGAGGACCGGGACAGUUGCAU | FALSE
AUAAUAUAGACGGCCGCCACUAUAAACAUGAGGAACAUGAGGAUCACCCAUGUAUGAGGAUCACCUAGGACCGGGUCAUAUAUUA | TRUE
CUUCGCAUAGGAAAACUAUGUGAAGAAAAUCGAGGACCGGUACGGCCGCCACUCGUCCUCAACAUGAGGAUCACCCAUGUAAUAA | FALSE

# ---- query sequence ----
(Q) Does apparent Kd meet or surpass 20 nM for "CGCAACAUGAGGAUCACCCAUGUAAUGACGCGAGGACCGGUACGGCCGCCACUCGCCUGGCAGUGAGCGCAUGCGGCCUGGGUAU" ?
(A) FALSE

----------
Would you kindly list apparent Kd for each of these sequences?
Test system: MS2 coat protein
Protocol Description: apparent Kd, MS2 coat protein; higher = weaker binding; RNA-MaP array; FMN 200 µM where present
Applied Conditions: ligand present: flavin mononucleotide; designed as: OFF switch for flavin mononucleotide

Recorded apparent Kd, per entry:
GUGGUCUCCGCAGGAUAUGGCUCGGGCACGACACCAGAAGGGCGGACAUGAGGAUCACCCAUGUUCGCGGGUGGGUCCUAAGGA | 7.49 nM
GUGGAGUAAGGAUAUACAUGAGGAUCACCCAUGUGAGGGUAUGUGAUGGGAGUAGGUUGUAGAAGGUACGAGGA | 131 nM
UUUAUACAUGAGGAUCACCCAUGUUAGGAUAUGGCUUUAAUGCCGCCGUCAUUAUCCGCCAGAAGGGACGUGUC | 30.4 nM
AGGUAACAUGAGGAUCACCCAUGUCAGGAUAUCAGUAAGAUGAGAAUAGAGUAGAGUAUGAGAAGGGACUAUAU | 32.3 nM

Lab note: each sequence below needs its apparent Kd filled in.
1. GUCAGCUCGUGAGGAUAUACAGCACUGCUUCGGCAGUGUAUUAAGAUCACAUGAGGAUCACCCAUGUAGAAGGCACGAGCUGAU
2. UACGGGUCAGGAUAUGCGAGAGAGUGGGAAAUAGGAAGGUAGCAGAAGGGACAUGAGGAUCACCCAUGUGAGGC
3. GGAUGUGUGUAAGGAUAUGCAUCACUGAGAAAUUUAGUGAGGAAGAUCACAUGAGGAUCACCCAUGUAGAAGGUACACACGUGG

(A)
1: 599 nM; 2: 29.5 nM; 3: 52.7 nM

----------
System: MS2 coat protein
Protocol Description: apparent Kd, MS2 coat protein; higher = weaker binding; RNA-MaP array
Applied Conditions: designed as: OFF switch for flavin mononucleotide; no ligand
Would you kindly list apparent Kd for each of these sequences?
Answers are plain numbers, in µM.

ACACAAACAGAAGGAUAUUUCACCAACAAGUCGAAAGAAGGUCUAGUACAUGAGGAUCACCCAUGUCUCAGUACAUCGCCGGUU | 0.0337
GGUGCACAUGAGGAUCACCCAUGUGAGGAUAUGUGAAACGAGCUGAAUGCCAACCAAAACAGAAGGCACAAUGG | 0.0183
CUGUGCGAACAGAAGGUGGCGUGUUAUCGGGACCAAGGAUAUGUUUACUAUUGUGACAAUUCACAUGAGGAUCACCCAUGUACA | 0.0217
GCGGGACUGUAGAAGGGUUAUCCUUAAGGUCUGAUCACAUGAGGAUCACCCAUGUAACGGGUGGAACAGGAUAUACCAGAUCGC | 0.042
UUGAUCUCGUAGAAGGGAGAGAUUGAGGGCUUCUCAGGAUAUACGAAUCCUCUGUGGCUAUGUUACAUGAGGAUCACCCAUGUC | 0.791

Lab note: each sequence below needs its apparent Kd filled in.
1. UAUUGAAUCCUCCCGACAUGAGGAUCACCCAUGUUACCUGCGCAGGAUAUCGUAUGUAUACCCGGCGAGAAGGGCGCUAGCGAG
2. UUAUAGGAAGGAUAUACAUGAGGAUCACCCAUGUUCAAACCAACGCACUAUCAUAAAUGUAGAAGGACCAACCC
3. CUUUACAUAUGUAUGUGGGUUACAUGAGGAUCACCCAUGUGAAGAAGGCUCACCUCAAGCGCAAGAGAGGAUAUUCACGGGUCC
4. CGCAAACUAGGAUAUACAGGGCGAAAACGUUUACUUGGAUAACAUGAGGAUCACCCAUGUAGAAGGAGUUCUUA

(A)
[0.213, 0.0119, 0.0608, 0.0289]

Lab note: each sequence below needs its apparent Kd filled in.
1. CUUGUAACCUAAGGAUAUGAUUAGGGCAUCACAUGAGGAUCACCCAUGUGGCGUGAUCCGAGCCUUCAGAAGGUAGGGGAGCAU
2. GAUUACGGUCUAGGAUAUUGAUUGGCACAUGAGGAUCACCCAUGUCUGUGAGAUCAGCAUACAAGCAAGAAGGAGAUGCGGUCU
3. AGGCAACAUGAGGAUCACCCAUGUCAGGAUAUAGUAAACACAAAUACGAGAAAUAUAACUAGAAGGGACAUAAU

(A)
0.475
0.0106
0.0166

----------
Tested on: MS2 coat protein
Protocol Description: apparent Kd, MS2 coat protein; higher = weaker binding; RNA-MaP array
Applied Conditions: ligand present: theophylline; designed as: OFF switch for theophylline
Quantity Kind: apparent Kd (nM)
One number for each entry, in nM.

Recorded apparent Kd, per entry:
AUGUAGCCGUCGACUGUACCUUAUGCCGAUACCAGCUACCCGUGAAGCCCUUGGCAGCGGGAAACAUGAGGAUCACCCAUGUCAG | 41.3
UGUCGCAGGUUAGAUACCAGCGAGGCGCGGGUAAAUGUUCACAUGAGGAUCACCCAUGUUCGCCCUUGGCAGCUAGUAGGCAUAA | 100
UUUAGUAUCUUAGAUACCAGUUUUGGGUGCUGAACGUCUCACAUGAGGAUCACCCAUGUAAACCCUUGGCAGCUACAUACGUAAA | 136

(Q) For the sequence shown here, "CCUGGAUCAGAUCUUAAAGGCGGUUCUGAUACCAGUCUUUUCCGAGACCCUUGGCAGCAGAACACAUGAGGAUCACCCAUGUAAA" , give the reported apparent Kd.
(A) 46.5

----------
System: MS2 coat protein
Protocol Description: apparent Kd, MS2 coat protein; higher = weaker binding; RNA-MaP array; FMN 200 µM where present
Applied Conditions: designed as: OFF switch for flavin mononucleotide; no ligand
# label = Fulfilled if apparent Kd >= 50 nM else Not fulfilled

GCGGGAGGAGGAUAUACAAUCGUGUGACCCGGACCCUAUGGACAUGAGGAUCACCCAUGUAGAAGGUUUCCCUU | Fulfilled
GGCCCACAUGAGGAUCACCCAUGUGAGGAUAUGUUAGUUUCGGCGAAAGCCGAAAUUAACAGAAGGCACAGGCC | Not fulfilled
CAGGUAGACUGAGGAUAUACAAUAAAGACCUAGUCUAUCUAGGUCUCCACAUGAGGAUCACCCAUGUAGAAGGCAGUCUGCCUG | Not fulfilled

(Q) Does apparent Kd meet or surpass 50 nM for "AAAACGUGAGGAUAUCCAAUAUAUGACAUGAGGAUCACCCAUGUUUCCACUCGUACCUCCGGAGAAGGCACUUUUU" ?
(A) Fulfilled

(Q) Does apparent Kd meet or surpass 50 nM for "CCUCUACAUGAGGAUCACCCAUGUGAGGAUAUCUCGGAGCAGCCACUUAAGGCGCUCCAGAGAAGGCACGUGUA" ?
(A) Not fulfilled

(Q) Does apparent Kd meet or surpass 50 nM for "UGCUGUGGCAGAGGAUAUACUCUAAUAAUCCAUUGCAAAUAGCGAUGGACAUGAGGAUCACCCAUGUAGAAGGCUGUCACAGCA" ?
(A) Fulfilled

(Q) Does apparent Kd meet or surpass 50 nM for "UCGCUUGAAGGAUAUACGAUUCGUUGUGUUCGUGUCACCUGACAUGAGGAUCACCCAUGUAGAAGGUCACGCAG" ?
(A) Not fulfilled

----------
Tested on: MS2 coat protein
Protocol Description: apparent Kd, MS2 coat protein; higher = weaker binding; RNA-MaP array; FMN 200 µM where present
Applied Conditions: designed as: OFF switch for flavin mononucleotide; no ligand
Quantity Kind: apparent Kd (nM)
Numbers only, in nM.

AAAGUGUAAGGAUAUGCUGCUCGUCACUUGCGUGAUGAGUAGCAGAAGGUACAUGAGGAUCACCCAUGUAAAAA | 28.8
UUUGGUUUGCGAGGAUAUGCUUUUAGUAAGUUAGCAGAAGGCGCGUUACAUAGAACCUCUUGUUACAUGAGGAUCACCCAUGUU | 88.2
GAGAAACAUGAGGAUCACCCAUGUGAGGAUAUGCGUACGUUGUCCGUAGGCGACGUGCGCAGAAGGCGCAAAGG | 83.9

Lab note: each sequence below needs its apparent Kd filled in.
1. ACGUGUUAUACAGGAUAUGUAUAGGUAUAAUCAUACAGUUAUUAAUUAAUGACAGAAGGGUAAACAUGAGGAUCACCCAUGUCA
2. AAUAACAGAGGAUAUACUGUUUUAUGUGUUUGUUAUUUUGAACAUGAGGAUCACCCAUGUAGAAGGCUGAGUAA
3. CUCAUGUAAGGAUAUCAGUAGUAAAAAAAUAAAAUUACUACUGAGAAGGUACAUGAGGAUCACCCAUGUCCUGG
4. UAGCUUGACGCAGGAUAUCCAAGGCUGAAAUGAGGAGAAGGGCGCCAAACAUGAGGAUCACCCAUGUAUUAUGCAGGGUCCUCG
5. GGACGCUAAGGAUAUACAUGAGGAUCACCCAUGUAGCCCGAAAGGGCGCGUUCCUUCUGUAGAAGGUGGCUAAA

(A)
[511, 27.8, 33.3, 302, 17]

Lab note: each sequence below needs its apparent Kd filled in.
1. AUGUUUCAUGUAGGAUAUGCAUAGCGUUGCUAUGCAGAAGGACAUGAGGAUCACCCAUGUAUAUUAUCAUUACAUAUCAUACAU
2. GCACUGGAUGUAGGAUAUCAGGACGAUAAGUCCUGAGAAGGACAUGAGGAUCACCCAUGUCCUAAAACCAGUGCAUAUAAUAUA
3. ACGUGUCGUGUAGGAUAUGACACAGGAAACUGGUCAGAAGGACAUGAGGAUCACCCAUGUAGAGUGUGUUAGGAUGACGUAUGC
4. UUUAUUUCGGCAGGAUAUACAUGUAUAUAUAUUCCUUCAUAUCUUAUUACAUGAGGAUCACCCAUGUAGAAGGGCCUUCUUCUC
5. GAGUACUGAGGAUAUACAUGAGGAUCACCCAUGUGUUCCAGCUAGGAAACUAGCAAAAGUAGAAGGCAGUACUG
6. ACAAAGAGCCAAGGAUAUACGUCGUCGAGCCCUCCCGUAGUGGCCAGCACAUGAGGAUCACCCAUGUAGAAGGUGGCUGUAGUC

(A)
45.7
14.4
51.9
38.4
19.5
20.1

(Q) For the sequence shown here, "GUGCGGUAGGAGAAGGACGGAGGCUUCUUUUCAUACAUGAGGAUCACCCAUGUAGGAUAUCCUACCUCACGCGGCCUACUACAG" , give the reported apparent Kd.
(A) 8.74
